Data credit: ChEMBL document CHEMBL1255514

molecular target: Delta-type opioid receptor (Homo sapiens, UniProt P41143); assay: Antagonist activity at human delta opioid receptor assessed as inhibition of SNC80-stimulated [35S]GTPgammaS binding
Sequence (P41143 whole entry): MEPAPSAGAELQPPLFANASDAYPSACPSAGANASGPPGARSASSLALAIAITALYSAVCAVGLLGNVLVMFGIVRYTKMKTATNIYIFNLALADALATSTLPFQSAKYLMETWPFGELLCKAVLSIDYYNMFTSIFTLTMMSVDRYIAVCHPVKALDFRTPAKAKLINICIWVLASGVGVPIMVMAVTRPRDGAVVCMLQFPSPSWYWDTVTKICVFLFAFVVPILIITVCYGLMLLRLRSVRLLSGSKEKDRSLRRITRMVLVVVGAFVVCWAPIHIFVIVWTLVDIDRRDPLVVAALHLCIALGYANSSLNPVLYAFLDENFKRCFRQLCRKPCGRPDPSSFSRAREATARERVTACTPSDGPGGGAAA
recordedMetric: IC50 (µM)
Answer format: numeric, µM implied, no suffix.

(Q) For the molecule `NC(=O)c1cccc(O[C@@H]2C[C@H]3CC[C@@H](C2)N3CCc2ccccc2)c1` , what IC50 is on record?
(A) 2.15

(Q) Given `CC(C)[C@@H](CN1CC[C@@](C)(c2cccc(O)c2)[C@@H](C)C1)NC(=O)[C@H]1Cc2ccccc2CN1` , state its recorded IC50.
(A) 1.28

(Q) Reported IC50 for `CS(=O)(=O)Cc1ccc(CN2[C@@H]3CC[C@H]2C[C@H](Oc2cccc(C(N)=O)c2)C3)cc1` : what is it?
(A) 5.39

(Q) Look up IC50: `Cc1ccc(CN2[C@@H]3CC[C@H]2C[C@H](Oc2cccc(C(N)=O)c2)C3)o1`
(A) 22
